Each record here notes measured activation.
# assay.summary: qHTS assay for environmental chemicals that activate the Aryl hydrocarbon Receptor (AhR) signaling pathway (AID 651777); further: % of control where 0% means no effect
# run.parameters: 1A2-DRE human hepatoma cells, luciferase, 24 h; stronger effect = higher value
Results filed as inconclusive are left out.

| compound | activation (%) |
| --- | --- |
| Nc1ccc(Cl)cc1[N+](=O)[O-] | 1.69 |
| Nc1cc(S(=O)(=O)O)ccc1O | -0.613 |
| CCN(C(=O)N(CC)c1ccccc1)c1ccccc1 | -1.64 |
| CCNc1ccccc1 | 0.398 |
| CC(C)(c1cc(Br)c(OCC(Br)CBr)c(Br)c1)c1cc(Br)c(OCC(Br)CBr)c(Br)c1 (stereo unspecified) | -1.38 |
| CCCCCCCCCCCCOCC1CO1 (stereo unspecified) | 0.152 |
| CC(C)N=C=NC(C)C | -2.05 |
| Nc1ccc([N+](=O)[O-])c(N)c1 | 1.41 |
| O=C(O)c1cccc(Cl)c1Cl | -1.06 |
| Cc1ccc2cccnc2c1 | 0.306 |
| CCCOCC(C)O (stereo unspecified) | 1.17 |
| O=C(O)c1cc(Cl)cc(Cl)c1 | 0.13 |
| CCCOCC(C)OCC(C)O (stereo unspecified) | -2.16 |
| NC=O | 1.58 |
| O=Cc1ccc(CO)o1 | -1.71 |
| C=Cc1ccc(C=C)cc1 | 7.35 |

All values here come from PubChem BioAssay (NCATS).
